test system: NK-92 (IL-2 2.5 ng/mL); test: percent inhibition of viability; higher = more inhibition; details: 72 h; 10 nM;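 also: normalised to DMSO-only wells as negative and benzethonium chloride as positive control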
Assign percent inhibition of viability to each entry below.

Worked cases, answers included:
O=C(Nc1cccc(Nc2ncc(Br)c(NCCc3cnc[nH]3)n2)c1)N1CCCC1 [BX-912] (max concentration tested 10000 nM) : -1.33%
CC[C@@H]1C(=O)N(C)c2cnc(Nc3ccc(C(=O)NC4CCN(C)CC4)cc3OC)nc2N1C1CCCC1 [BI 2536] (max concentration tested 1000 nM) : 41.7%
NC(=O)N1CCC(CC(=O)N2CCC([C@H]3c4ncc(Br)cc4CCc4cc(Cl)cc(Br)c43)CC2)CC1 [Lonafarnib] (max concentration tested 10000 nM) : -12.8%
C[C@@H](Oc1cc(-n2cnc3ccc(CN4CCN(C)CC4)cc32)sc1C(N)=O)c1ccccc1C(F)(F)F (max concentration tested 10000 nM) : 68.8%
Cc1ccc(-c2cc(C(F)(F)F)nn2-c2ccc(S(N)(=O)=O)cc2)cc1 [Celecoxib] (max concentration tested 10000 nM) : 9.29%

// below: percent inhibition of viability requested for another compound
GET /values?readout=percent inhibition of viability&item= CCCS(=O)(=O)Nc1ccc(F)c(C(=O)c2c[nH]c3ncc(-c4ccc(Cl)cc4)cc23)c1F [Vemurafenib] (max concentration tested 10000 nM)
1.62%

====

tested on: NKL (IL-2 2.5 ng/mL); assay: percent inhibition of viability; higher = more inhibition; settings: 72 h; 10 nM
EXPERIMENTAL_ENDPOINT: percent inhibition of viability (%)
One number for each entry, in %.

Examples with their reported percent inhibition of viability follow.
CC(C)[C@H]1C(=O)N[C@@H](CCCNC(=N)N)C(=O)NCC(=O)N[C@@H](CC(=O)O)C(=O)N[C@H](Cc2ccccc2)C(=O)N1C [Cilengitide] (max concentration tested 10000 nM) : -8.69
C[C@]1(O)C[C@@H](c2nc(-c3ccc4ccc(-c5ccccc5)nc4c3)c3c(N)nccn32)C1 [Linsitinib] (max concentration tested 10000 nM) : -15.4
COc1cc(C(=O)O)ccc1NC(=O)[C@@H]1N[C@@H](CC(C)(C)C)[C@](C#N)(c2ccc(Cl)cc2F)[C@H]1c1cccc(Cl)c1F [RG7388] (max concentration tested 10000 nM) : 8.19

Please give percent inhibition of viability for each item listed below.
1. O=C(Nc1cccnc1)N1CCC(Cc2cccc(Oc3ccc(C(F)(F)F)cn3)c2)CC1 [PF-3845] (max concentration tested 10000 nM)
2. CN1CCC(COc2cnc(-c3cccc(Cn4nc(-c5cccc(C#N)c5)ccc4=O)c3)nc2)CC1 (max concentration tested 1000 nM)
3. Nc1nc(F)nc2c1ncn2[C@@H]1O[C@H](CO)[C@@H](O)[C@@H]1O [Fludarabine] (max concentration tested 10000 nM)
4. Cc1cc(C)c(CNC(=O)c2cc(-c3ccc(CN4CCOCC4)cc3)cc3c2cnn3C2CCCC2)c(=O)[nH]1 [EPZ-5687] (max concentration tested 10000 nM)
5. CN1CCC(CNc2ccc3ncc(-c4cccc(OC(F)(F)F)c4)n3n2)CC1 [SGI-1776] (max concentration tested 10000 nM)

1. -15.9
2. -8.56
3. -16.5
4. -9.21
5. -12.2

====

system: NKL (IL-2 2.5 ng/mL); test: percent inhibition of viability; higher = more inhibition; conditions: 72 h; 100 nM
I'd appreciate it if you could supply percent inhibition of viability values for the items below.
One number for each entry, in %.

N#CC[C@H](C1CCCC1)n1cc(-c2ncnc3[nH]ccc23)cn1 [Ruxolitinib] (max concentration tested 10000 nM) : 75.1

Please look at the items below and tell me percent inhibition of viability for each one, in order.
1. COC1=CC(c2cc3ccccc3[nH]2)=N/C1=C\c1[nH]c(C)cc1C [Obatoclax] (max concentration tested 10000 nM)
2. FC(F)c1nc2ccccc2n1-c1nc(N2CCOCC2)nc(N2CCOCC2)n1 [ZSTK474] (max concentration tested 10000 nM)

25.5
6.05
